B1: CPEB3 Ribozyme (parent)
chain: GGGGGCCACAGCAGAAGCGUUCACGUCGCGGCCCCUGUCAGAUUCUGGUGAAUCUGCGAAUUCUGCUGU

# Variants of: B1
# test method notes: self-cleavage, relative activity (ratio to wild type); higher = more cleavage; co-transcriptional
Kindly return T if reported self-cleavage is no lower than 0.5; return F if it is lower.

Reference set, count: 8
[in] Decide: self-cleavage of GGGCGCCACAGCAGAAGCGUUCACGUCGCGGCCCCUGUCAGAUUCUGGUGAAUCUGCCAAUUCUGCUGU [G4C G58C] >= 0.5?
[out] F

[in] State whether the measured self-cleavage reaches 0.5, counting equality as reaching it, for GGGGGCCACAGCAGAAGCGUUCACGUCGCGGCCCCUGUCAGAUUCUGGUGAAUCUGCCAAUUCCGCUGU [G58C U64C]
[out] T

[in] Determine whether this variant has self-cleavage no lower than 0.5: GGGGGCCACAGCAGAAGCGUUCACGUCGCGGCCCCUGUCAGAUUCUGGUGAAUCUGCGCAUUCUGCUAU [A59C G68A]
[out] T

[in] Determine whether measured self-cleavage meets or exceeds 0.5 for GGGGGCCACAGAAGAAGCGUUCACGUCGCGGACCCUGUCAGAUUCUGGUGAAUCUGCGAAUUCUGCUGU [C12A C32A]
[out] F

[in] Entry GGGGGCCACAGCAGAAGCGUUCCCGUUGCGGCCCCUGUCAGAUUCUGGUGAAUCUGCGAAUUCUGCUGU [A23C C27U] : is its self-cleavage no less than 0.5?
[out] F

[in] Can GGGGGCCACAGCAGAAGCGUUCACGUCGCGGCACCUGUCAGAUUCUGGUGAAUCUGCGAAUUCUGCUGG [C33A U69G] be said to have self-cleavage at or above 0.5?
[out] T

[in] API: above_or_equal(metric=self-cleavage, cutoff=0.5) for item GGGGGCCACAGCAGAAGCGUUCACGUCGCGGACCCUGUCAGAUUCUGUUGAAUCUGCGAAUUCUGCUGU [C32A G48U]
[out] T

[in] Answer whether self-cleavage of GGGGGACACAGCAGAAGCGUUCACGUUGCGGCCCCUGUCAGAUUCUGGUGAAUCUGCGAAUUCUGCUGU [C6A C27U] is greater than or equal to 0.5.
[out] F

Others:
[in] hey, is self-cleavage for this one >= 0.5? GGGGGCCACACCAGAAGCGUUCACGUCGCGGCCCCUGUCAGAUUCUGGUGAAUCUGCGAAUUCUGCUAU [G11C G68A]
[out] T

[in] Has GGGGGCCACAGCAGAAGCGUUCUCGUUGCGGCCCCUGUCAGAUUCUGGUGAAUCUGCGAAUUCUGCUGU [A23U C27U] a recorded self-cleavage greater than or equal to 0.5?
[out] F

[in] Is self-cleavage for GGGGGCCACAGCAUAAGCGUUCACGUCGCGGCCCUUGUCAGAUUCUGGUGAAUCUGCGAAUUCUGCUGU [G14U C35U] at or above 0.5?
[out] T

[in] Is self-cleavage at least 0.5? Consider GGAGGCCACAGCAGAAGCGUUCACGUCGCGGCCCCUGUUAGAUUCUGGUGAAUCUGCGAAUUCUGCUGU [G3A C39U]
[out] F

[in] Decide: self-cleavage of GGGGGCCACAGCAGAAUCGUUCACGUCGCGGCCCCUGUCAGAUUCUGGUGUAUCUGCGAAUUCUGCUGU [G17U A51U] >= 0.5?
[out] F

[in] Is self-cleavage for GGGGGCCACAGCAGAAACGUUCACGUCGCGGCCCCUGUCAGAUCCUGGUGAAUCUGCGAAUUCUGCUGU [G17A U44C] at or above 0.5?
[out] F

[in] Form field: self-cleavage at least 0.5? Entry: GGGAGCCACAGCAGAAGCGUUCACGUCGCGGCCCCUGUCAGAUUCUGGUGAAUCUGCGAAUUCUACUGU [G4A G65A]
[out] T

[in] Confirm if self-cleavage reported for the variant GGGGGCCACAGCAGAAGCGUUCACGUCGCGGCCACUGUCAGAUGCUGGUGAAUCUGCGAAUUCUGCUGU [C34A U44G] is 0.5 or above.
[out] T

[in] # check: self-cleavage of GGGGGCCACAGCAGAAGCGUUCACGUCGCGGCCCCUGUCAGAUUCUGGUGAAUCUGCGAAUUCAGUUGU [U64A C66U] is greater than or equal to 0.5
[out] T

[in] Test whether the variant GGGGGCCACAGCAGAGGCGUUCACGUCGCGGCCCCCGUCAGAUUCUGGUGAAUCUGCGAAUUCUGCUGU [A16G U36C] records self-cleavage of 0.5 or higher.
[out] T

[in] Reported self-cleavage reaches at least 0.5 for GGGGGCCACAGCAGAAGCAUUCACGUCGCGGCCCCUGUCAGAUACUGGUGAAUCUGCGAAUUCUGCUGU [G19A U44A] ?
[out] F

[in] Tell me whether self-cleavage is at least 0.5 here: GGGGGCGACAGCAGAAGCGUUCACGUCGCGGCCCCUGUCAGAUUCUGGUGAAUCUGCGAAUUCUGCAGU [C7G U67A]
[out] T

[in] Textbook exercise: given the entry GGGCGCCACAGCAGAAGCGUUCACGUCGCGGCCCCUGUCAGAUUCUGGUGAAUCUGCGAAUUCUGGUGU [G4C C66G] , state whether its self-cleavage is greater than or equal to 0.5.
[out] F

[in] Hi team, for GGGGGCCACAGCAGAAGCGUUCACGUCGCGGCCCCUGUCAGAUUCUGGGGAAUCUGGGAAUUCUGCUGU [U49G C57G] , is the recorded self-cleavage at or above 0.5?
[out] F
